Hello, the source for this data is patent US20230257396A1, in case you need it.

Let's look at some molecules and their measured % Ctrl, EGFR(L858R, T790M).
- system_name: kinases (Homo sapiens, UniProt P00533, L858R/T790M)
- Construct: purchased Eurofins/DiscoveRx; host or cells: E. coli BL21-derived host (T7 phage display) for most kinases; HEK-293 for the rest
- experiment_summary: KINOMEscan kinase binding assay (Eurofins/DiscoveRx), % Ctrl
- applied_conditions: 1 μM; EGFR(L858R, T790M)

# molecule, unit_label, % Ctrl, EGFR(L858R, T790M)
records = [
    ("Cc1cc2c([nH]1)/C=C1\\C(=O)Nc3ccc(cc31)CN(C)C(=O)COCCNC2=O [Ex.111]", "% Ctrl", 97),
    ("Cc1cc2c([nH]1)/C=C1\\C(=O)Nc3ccc(cc31)-c1ccnn1CCOCCN(C)C2=O [Ex. 41]", "% Ctrl", 17),
    ("Cc1cc2c([nH]1)/C=C1\\C(=O)Nc3ccc(cc31)-c1ccnn1CCNCCNC2=O [Ex. 43]", "% Ctrl", 98),
    ("Cc1cc2c([nH]1)/C=C1\\C(=O)Nc3cc(Cl)c(cc31)OCCOCCN(C)C2=O [Ex. 131]", "% Ctrl", 35),
    ("Cc1cc2c([nH]1)/C=C1\\C(=O)Nc3ccc(cc31)-c1cnn(C)c1CNCCN(C)C2=O [Ex. 125]", "% Ctrl", 1.2),
]

----------
- system_name: kinases (Homo sapiens, UniProt P10721, L576P)
- Construct: purchased Eurofins/DiscoveRx; host or cells: E. coli BL21-derived host (T7 phage display) for most kinases; HEK-293 for the rest
- Sequence (P10721 26-976 L576P): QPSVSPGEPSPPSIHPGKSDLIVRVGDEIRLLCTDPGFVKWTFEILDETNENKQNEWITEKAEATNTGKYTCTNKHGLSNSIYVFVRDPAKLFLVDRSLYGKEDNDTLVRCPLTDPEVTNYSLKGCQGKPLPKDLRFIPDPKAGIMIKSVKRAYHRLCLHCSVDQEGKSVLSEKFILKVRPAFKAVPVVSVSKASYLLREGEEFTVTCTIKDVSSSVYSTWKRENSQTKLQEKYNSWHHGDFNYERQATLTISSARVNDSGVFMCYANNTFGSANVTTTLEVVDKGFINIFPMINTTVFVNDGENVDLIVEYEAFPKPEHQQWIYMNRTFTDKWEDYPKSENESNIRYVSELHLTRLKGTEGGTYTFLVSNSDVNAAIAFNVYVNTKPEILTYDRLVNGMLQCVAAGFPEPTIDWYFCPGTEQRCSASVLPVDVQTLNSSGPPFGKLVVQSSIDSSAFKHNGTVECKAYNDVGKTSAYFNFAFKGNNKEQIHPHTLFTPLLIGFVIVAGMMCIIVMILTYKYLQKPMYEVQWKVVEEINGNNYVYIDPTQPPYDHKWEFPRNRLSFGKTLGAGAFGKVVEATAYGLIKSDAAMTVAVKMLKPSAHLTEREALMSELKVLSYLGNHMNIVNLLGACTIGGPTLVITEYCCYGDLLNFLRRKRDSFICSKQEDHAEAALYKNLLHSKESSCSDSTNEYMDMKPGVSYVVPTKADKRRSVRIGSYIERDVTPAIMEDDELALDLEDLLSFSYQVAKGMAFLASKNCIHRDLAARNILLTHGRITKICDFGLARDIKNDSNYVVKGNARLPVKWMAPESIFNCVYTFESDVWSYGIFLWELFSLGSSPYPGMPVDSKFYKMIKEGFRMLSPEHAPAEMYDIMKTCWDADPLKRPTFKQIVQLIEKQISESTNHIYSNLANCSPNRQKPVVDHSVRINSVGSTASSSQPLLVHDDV
- experiment_summary: KINOMEscan kinase binding assay (Eurofins/DiscoveRx), % Ctrl
- applied_conditions: 1 μM; target KIT(L576P)
met means recorded % Ctrl, KIT(L576P) is 20 % Ctrl or above; not met means it is below 20 % Ctrl.

# compound, answer_label
records = [
    ("Cc1cc2c([nH]1)/C=C1\\C(=O)Nc3ccc(cc31)-c1c(noc1C(C)C)COCCN(C)C2=O", "met"),
    ("CN1CCOc2cc3c(cc2Cl)NC(=O)/C3=C\\c2[nH]ccc2C(=O)N(C)CC1", "not met"),
    ("Cc1cc2c([nH]1)/C=C1\\C(=O)Nc3cc(Cl)c(cc31)SCCOCCN(C)C2=O", "not met"),
    ("Cc1cc2c([nH]1)/C=C1\\C(=O)Nc3ccc(cc31)-c1cnn(C)c1OCCCN(C)C2=O", "met"),
    ("Cc1cc2c([nH]1)/C=C1\\C(=O)Nc3cnc(cc31)-c1cnn(C)c1CN(C)CCN(C)C2=O", "not met"),
]

----------
- system_name: kinases (Homo sapiens, UniProt P00533, L861Q)
- Construct: purchased Eurofins/DiscoveRx; host or cells: E. coli BL21-derived host (T7 phage display) for most kinases; HEK-293 for the rest
- experiment_summary: KINOMEscan kinase binding assay (Eurofins/DiscoveRx), % Ctrl
- applied_conditions: target EGFR(L861Q); 1 μM
Satisfied means recorded % Ctrl, EGFR(L861Q) is 90 % Ctrl or above; Not satisfied means it is below 90 % Ctrl.

# compound, system_name, answer_label
data = [
    ("Cc1cc2c([nH]1)/C=C1\\C(=O)Nc3cc(Cl)c(cc31)OCCO[C@@H](C(=O)N1CCN(C)CC1)CN(C)C2=O", "kinases (Homo sapiens, UniProt P00533, L861Q)", "Satisfied"),
    ("CN1CCOCCOc2cc3c(cc2Cl)NC(=O)/C3=C\\c2[nH]ccc2C1=O", "kinases (Homo sapiens, UniProt P00533, L861Q)", "Satisfied"),
    ("Cc1cc2c([nH]1)/C=C1\\C(=O)Nc3cnc(cc31)-c1cn[nH]c1CNCCN(C)C2=O", "kinases (Homo sapiens, UniProt P00533, L861Q)", "Not satisfied"),
    ("CN1CCSCCOc2cc3c(cc2Cl)NC(=O)/C3=C\\c2[nH]ccc2C1=O", "kinases (Homo sapiens, UniProt P00533, L861Q)", "Not satisfied"),
    ("Cc1nn(C)c2c1-c1ccc3c(c1)/C(=C/c1[nH]ccc1C(=O)N(C)CCCO2)C(=O)N3", "kinases (Homo sapiens, UniProt P00533, L861Q)", "Not satisfied"),
]

----------
- system_name: kinases (Homo sapiens, UniProt P35916)
- Construct: purchased Eurofins/DiscoveRx; host or cells: E. coli BL21-derived host (T7 phage display) for most kinases; HEK-293 for the rest
- Sequence (P35916 25-1363): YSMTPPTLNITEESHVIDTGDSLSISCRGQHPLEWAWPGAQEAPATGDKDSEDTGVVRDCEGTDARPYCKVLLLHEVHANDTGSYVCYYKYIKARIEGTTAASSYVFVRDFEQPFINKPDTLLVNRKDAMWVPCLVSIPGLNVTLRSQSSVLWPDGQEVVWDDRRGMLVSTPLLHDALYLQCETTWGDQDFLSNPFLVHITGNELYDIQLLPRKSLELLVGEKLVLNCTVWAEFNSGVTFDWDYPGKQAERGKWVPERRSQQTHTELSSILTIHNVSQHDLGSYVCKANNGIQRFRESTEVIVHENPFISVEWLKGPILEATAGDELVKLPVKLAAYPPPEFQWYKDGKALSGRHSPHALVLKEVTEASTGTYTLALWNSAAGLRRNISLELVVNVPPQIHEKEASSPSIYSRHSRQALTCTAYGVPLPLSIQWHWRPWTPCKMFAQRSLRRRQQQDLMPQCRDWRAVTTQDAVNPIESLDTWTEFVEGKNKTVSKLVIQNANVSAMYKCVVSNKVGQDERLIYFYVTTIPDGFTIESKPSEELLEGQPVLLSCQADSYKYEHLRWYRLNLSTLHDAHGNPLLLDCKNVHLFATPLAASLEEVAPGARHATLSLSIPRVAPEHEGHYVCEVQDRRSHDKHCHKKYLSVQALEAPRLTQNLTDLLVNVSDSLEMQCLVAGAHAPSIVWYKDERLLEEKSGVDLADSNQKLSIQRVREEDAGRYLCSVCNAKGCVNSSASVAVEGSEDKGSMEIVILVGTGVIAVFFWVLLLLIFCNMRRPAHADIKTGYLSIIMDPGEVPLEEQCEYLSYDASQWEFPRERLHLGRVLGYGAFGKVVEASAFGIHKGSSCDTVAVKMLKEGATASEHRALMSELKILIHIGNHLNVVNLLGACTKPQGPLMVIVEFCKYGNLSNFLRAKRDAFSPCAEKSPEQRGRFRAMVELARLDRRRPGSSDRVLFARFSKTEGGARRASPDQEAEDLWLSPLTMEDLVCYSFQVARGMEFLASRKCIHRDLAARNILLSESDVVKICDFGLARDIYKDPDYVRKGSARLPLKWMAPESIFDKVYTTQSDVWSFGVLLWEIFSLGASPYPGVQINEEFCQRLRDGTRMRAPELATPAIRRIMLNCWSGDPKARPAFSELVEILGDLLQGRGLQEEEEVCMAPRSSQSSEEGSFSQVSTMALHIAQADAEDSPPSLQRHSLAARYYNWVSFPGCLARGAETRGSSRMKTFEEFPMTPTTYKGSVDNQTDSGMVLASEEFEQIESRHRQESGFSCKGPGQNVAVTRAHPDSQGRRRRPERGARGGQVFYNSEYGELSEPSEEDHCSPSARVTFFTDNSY
- experiment_summary: KINOMEscan kinase binding assay (Eurofins/DiscoveRx), % Ctrl
- applied_conditions: target FLT4; 1 μM
- Protocol: Kinase binding assays were performed at Eurofins/DiscoveRx using the general KINOMEscan Protocol (Fabian, M. A. et al., “A small molecule-kinase interaction map for clinical kinase inhibitors,” Nat. Biotechnol. 2005, 23(3):329-36). For most assays, kinase-tagged T7 phage strains were prepared in an E. coli host derived from the BL21 strain. […] The kinase concentration in the eluates was measured by qPCR. […]
MET means recorded % Ctrl, FLT4 is 80 % Ctrl or above; NOT MET means it is below 80 % Ctrl.

# compound, answer_label
rows = [
    ("CN1CCOCCOc2cc3c(cc2Cl)NC(=O)/C3=C\\c2[nH]ccc2C1=O", "NOT MET"),
    ("Cc1cc2c([nH]1)/C=C1\\C(=O)Nc3ccc(cc31)-c1c(noc1C)CNCCN(C)C2=O", "NOT MET"),
    ("Cc1cc2c([nH]1)/C=C1\\C(=O)Nc3cnc(cc31)-c1cn[nH]c1CNCCN(C)C2=O", "NOT MET"),
    ("Cc1nn(C)c2c1-c1ccc3c(c1)/C(=C/c1[nH]ccc1C(=O)N(C)CCCO2)C(=O)N3", "MET"),
    ("Cc1cc2c([nH]1)/C=C1\\C(=O)Nc3cc(Cl)c(cc31)OCCO[C@@H](C(=O)N1CCN(C)CC1)CN(C)C2=O", "MET"),
    ("CN1CCSCCOc2cc3c(cc2Cl)NC(=O)/C3=C\\c2[nH]ccc2C1=O", "NOT MET"),
]

----------
- system_name: kinases (Homo sapiens, UniProt P00519, H396P)
- Construct: purchased Eurofins/DiscoveRx; host or cells: E. coli BL21-derived host (T7 phage display) for most kinases; HEK-293 for the rest
- experiment_summary: KINOMEscan kinase binding assay (Eurofins/DiscoveRx), % Ctrl
- applied_conditions: 1 μM; ABL1(H396P)-phosphorylated
Let's look at some compounds and their measured % Ctrl, ABL1(H396P)-phosphorylated.

# compound, % Ctrl, ABL1(H396P)-phosphorylated, % Ctrl
records = [
    ("Cc1cc2c([nH]1)/C=C1\\C(=O)Nc3ccc(cc31)O[C@@H](C)COCCN(C)C2=O [Ex. 92]", 46),
    ("Cc1cc2c([nH]1)/C=C1\\C(=O)Nc3ccc(cc31)-c1cnn(C)c1CN(C)CCN(C)C2=O [Ex. 126]", 0.1),
    ("Cc1cc2c([nH]1)/C=C1\\C(=O)Nc3cc(Cl)c(cc31)OCCOCCN(C)C2=O [Ex. 131]", 0),
    ("Cc1cc2c([nH]1)/C=C1\\C(=O)Nc3ccc(cc31)OCCOCCN(C)C2=O [Ex.91]", 15),
    ("Cc1cc2c([nH]1)/C=C1\\C(=O)Nc3ccc(cc31)-c1cnn(C)c1CNCCN(C)C2=O [Ex. 125]", 0.1),
    ("Cc1cc2c([nH]1)/C=C1\\C(=O)Nc3ccc(cc31)-c1c(noc1C)COCCN(C)C2=O [Ex. 128]", 51),
    ("Cc1cc2c([nH]1)/C=C1\\C(=O)Nc3cnc(nc31)N(C)CCCOCCN(C)C2=O [Ex.71]", 98),
    ("CNC(=O)[C@H]1CN(C)C(=O)c2cc(C)[nH]c2/C=C2\\C(=O)Nc3cc(Cl)c(cc32)OCCO1 [Ex. 135]", 54),
    ("Cc1cc2c([nH]1)/C=C1\\C(=O)Nc3ccc(cc31)-c1c(C)n[nH]c1CNCCN(C)C2=O [Ex. 127]", 0),
    ("Cc1cc2c([nH]1)/C=C1\\C(=O)Nc3ccc(cc31)-c1ccnn1CCOCCNC2=O [Ex.39]", 82),
    ("Cc1cc2c([nH]1)/C=C1\\C(=O)Nc3ccc(nc31)-c1ccccc1OCCCNC2=O [Ex.22]", 77),
    ("Cc1cc2c([nH]1)/C=C1\\C(=O)Nc3cc(Cl)c(cc31)OCCO[C@@H](C(=O)N(C)C)CN(C)C2=O [Ex. 137]", 65),
    ("Cc1cc2c([nH]1)/C=C1\\C(=O)Nc3cc(Cl)c(cc31)OCCO[C@@H](C(=O)NC1CNC1)CN(C)C2=O [Ex. 133]", 67),
]

----------
- system_name: kinases (Homo sapiens, UniProt P00519, F317L)
- Construct: purchased Eurofins/DiscoveRx; host or cells: E. coli BL21-derived host (T7 phage display) for most kinases; HEK-293 for the rest
- experiment_summary: KINOMEscan kinase binding assay (Eurofins/DiscoveRx), % Ctrl
- applied_conditions: 1 μM; ABL1(F317L)-phosphorylated
Let's look at some molecules and their measured % Ctrl, ABL1(F317L)-phosphorylated.

# compound, % Ctrl, ABL1(F317L)-phosphorylated
rows = [
    ("Cc1cc2c([nH]1)/C=C1\\C(=O)Nc3cc(Cl)c(cc31)OCCO[C@@H](C(=O)N(C)C)CN(C)C2=O", "67 % Ctrl"),
    ("Cc1cc2c([nH]1)/C=C1\\C(=O)Nc3ccc(cc31)-c1cnn(C)c1COCCN(C)C2=O", "0.2 % Ctrl"),
    ("Cc1cc2c([nH]1)/C=C1\\C(=O)Nc3cnc(nc31)N(C)CCCOCCN(C)C2=O", "100 % Ctrl"),
    ("Cc1cc2c([nH]1)/C=C1\\C(=O)Nc3cc(Cl)c(cc31)OCCOCCN(C)C2=O", "1.3 % Ctrl"),
    ("Cc1cc2c([nH]1)/C=C1\\C(=O)Nc3ccc(cc31)OCCOCCN(C)C2=O", "20 % Ctrl"),
    ("Cc1cc2c([nH]1)/C=C1\\C(=O)Nc3cc(Cl)c(cc31)OCCO[C@@H](C(=O)N[C@@H]1CCNC1)CN(C)C2=O", "44 % Ctrl"),
    ("CNC(=O)[C@H]1CN(C)C(=O)c2cc(C)[nH]c2/C=C2\\C(=O)Nc3cc(Cl)c(cc32)OCCO1", "64 % Ctrl"),
    ("Cc1cc2c([nH]1)/C=C1\\C(=O)Nc3cc(Cl)c(cc31)OCCO[C@@H](C(=O)NC1CCNCC1)CN(C)C2=O", "57 % Ctrl"),
    ("Cc1cc2c([nH]1)/C=C1\\C(=O)Nc3ccc(cc31)-c1cnn(C)c1CNCCN(C)C2=O", "0.55 % Ctrl"),
    ("Cc1cc2c([nH]1)/C=C1\\C(=O)Nc3ccc(cc31)-c1ccnn1CCOCCNC2=O", "60 % Ctrl"),
    ("Cc1cc2c([nH]1)/C=C1\\C(=O)Nc3ccc(cc31)OCCOCCNC2=O", "79 % Ctrl"),
    ("Cc1cc2c([nH]1)/C=C1\\C(=O)Nc3cc(Cl)c(cc31)OCCO[C@@H](C(=O)NC1CNC1)CN(C)C2=O", "88 % Ctrl"),
    ("Cc1cc2c([nH]1)/C=C1\\C(=O)Nc3ccc(cc31)-c1c(noc1C)COCCN(C)C2=O", "58 % Ctrl"),
]
